Measured inhibition accompanies every entry in the list below.
experimental-system: Mannose-6-phosphate isomerase (Homo sapiens) (UniProt P34949)
Sequence (P34949 whole entry, looked up): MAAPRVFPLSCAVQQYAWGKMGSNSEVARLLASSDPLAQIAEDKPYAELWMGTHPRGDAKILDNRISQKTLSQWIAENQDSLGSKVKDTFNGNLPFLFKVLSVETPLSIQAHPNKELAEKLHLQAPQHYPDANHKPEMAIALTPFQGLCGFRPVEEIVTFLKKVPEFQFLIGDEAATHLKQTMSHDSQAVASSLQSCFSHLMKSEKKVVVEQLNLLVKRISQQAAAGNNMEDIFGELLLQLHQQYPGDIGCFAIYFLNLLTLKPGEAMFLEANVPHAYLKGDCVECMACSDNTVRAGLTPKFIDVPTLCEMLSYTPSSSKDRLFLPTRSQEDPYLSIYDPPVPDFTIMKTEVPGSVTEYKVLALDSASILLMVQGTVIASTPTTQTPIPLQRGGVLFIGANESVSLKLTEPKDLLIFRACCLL
assay-summary: MPI inhibition at elevated mannose 6-phosphate – biochemical, fluorescence intensity, high mannose 6-phosphate, primary screen (AID 1220)
experimental-parameters: recombinant PMI enzyme, coupled fluorescence intensity; at 20 µM; hits give high values
The campaign covered roughly 190,000 compounds. About 1,300 (0.68%) were called active. This excerpt belongs to a sample that is enriched for actives.
API: value field is a number in %; no unit string.

Some solved entries appear below for comparison.
- O=C1NC(=O)N(Cc2ccccc2)C(=O)/C1=C/N1CCCc2ccccc21: 6
- COc1ccc(CCn2c(O)c(/C=N/NC(=O)c3ccncc3)c(=O)[nH]c2=O)cc1OC: -12.8
- N#Cc1cc2c(nc1SCC(=O)Nc1ccc(Cl)cc1)C1CCN2CC1: -2.2
- CCN(CC)CC(O)c1ccc(C2CCCC2)cc1 (stereo not drawn): -5.5
- O=C1CCCN1c1ccc(S(=O)(=O)O)cc1 (tested in a mixture with another compound): -11.1

Q: Given the entry CCN(CCNc1ccc([N+](=O)[O-])c2cccnc12)S(=O)(=O)c1ccccc1 , report its measured inhibition.
Ans: 8.2

Q: Given the entry O=[N+]([O-])c1ccc(NCCCN2CCOCC2)c2ncccc12 , report its measured inhibition.
Ans: 57.5

Q: Given the entry CCN(CCNc1ccc([N+](=O)[O-])c2cccnc12)S(=O)(=O)c1ccc(Cl)cc1 , report its measured inhibition.
Ans: 36.7

====

experimental-system: Mannose-6-phosphate isomerase (Homo sapiens)
assay-summary: MPI inhibition at elevated mannose 6-phosphate – biochemical, fluorescence intensity, high mannose 6-phosphate, primary screen (AID 1220)
experimental-parameters: recombinant PMI enzyme, coupled fluorescence intensity; at 20 µM; hits give high values
The whole screen tested about 190,000 compounds, of which about 1,300 (0.68%) were called active. The full list was thinned out, with actives kept by preference.
Measured inhibition accompanies every entry in the list below.
API: value field is a number in %; no unit string.

Some solved entries appear below for comparison.
- Oc1ccc2ccccc2c1CN1CC=C(c2ccccc2)CC1: 38.8
- CNC(=O)Oc1ccc(-c2cn3cc(C)ccc3n2)cc1: 4.6
- CCCCCn1c(=O)c(C(=O)Nc2ccncc2)c(O)c2ccccc21: -5.5

Q: Query inhibition on Mannose-6-phosphate isomerase (Homo sapiens) for CNC(=O)Oc1cccc(-c2cn3cc(Cl)ccc3n2)c1
Ans: 3

Q: Query inhibition on Mannose-6-phosphate isomerase (Homo sapiens) for COc1ccc2ccc(O)c(CN3CC=C(c4ccccc4)CC3)c2c1
Ans: 57.7

Q: Query inhibition on Mannose-6-phosphate isomerase (Homo sapiens) for CC(=O)OC1(c2ccccc2)CCN(C)C(C)C1C (stereo unspecified)
Ans: -7.2

====

experimental-system: Mannose-6-phosphate isomerase (Homo sapiens)
assay-summary: MPI inhibition at elevated mannose 6-phosphate – biochemical, fluorescence intensity, high mannose 6-phosphate, primary screen (AID 1220)
experimental-parameters: recombinant PMI enzyme, coupled fluorescence intensity; at 20 µM
The whole screen tested about 190,000 compounds, of which about 1,300 (0.68%) were called active. No stated cut-off is given here; in the data, active means inhibition above about 50%; inactive means the rest. The full list was thinned out, with actives kept by preference.
Just give me one of these, please: True for active, False for inactive

* CN(C)C(=O)Oc1ccc(-c2nnco2)cc1 | False
* CC(C)CCNC(=O)c1c(N)n(Cc2ccc3c(c2)OCO3)c2nc3ccccc3nc12 | False
* COc1ccc(N=C(C)c2c(O)n(C)c(=O)n(C)c2=O)c(OC)c1 | False
* COC(=O)CNC(=O)c1cn(CCC#N)nc1-c1ccc(F)cc1 | False

Q: Can you look up the reported call for O=c1[nH]c(=S)n(Cc2ccc(F)cc2)c(O)c1C=NCC1CCCO1 (centres undefined) for me?
Ans: False

Q: Can you look up the reported call for Cc1nc2cc(-c3ccccc3)nn2c(C)c1CCC(=O)N1CCC2(CC1)OCCO2 for me?
Ans: False

====

experimental-system: Mannose-6-phosphate isomerase (Homo sapiens) (UniProt P34949)
assay-summary: MPI inhibition at elevated mannose 6-phosphate – biochemical, fluorescence intensity, high mannose 6-phosphate, primary screen (AID 1220)
experimental-parameters: recombinant PMI enzyme, coupled fluorescence intensity; at 20 µM
Screen size: about 190,000 compounds; about 1,300 (0.68%) were called active. No stated cut-off is given here; in the data, active means inhibition above about 50%; inactive means the rest. This is one part of a sample in which actives are shown more often than they occur.
Just give me one of these, please: true (1) = active, false (0) = inactive

Check out these entries, answers already filled in.
- COCCNC(=O)c1c(NC(=O)c2ccc(Br)o2)n(Cc2ccccc2)c2nc3ccccc3nc12: false (0)
- CNc1cc(N2CCN(C)CC2)ccc1[N+](=O)[O-]: false (0)
- CCOC(=O)c1c(NS(=O)(=O)c2ccccc2)n(CCCOC)c2nc3ccccc3nc12: false (0)
- COc1ccc(OC)c(N2C(=O)NC(=O)/C(=C\c3ccc([N+](=O)[O-])s3)C2=O)c1: false (0)
- CCCCn1c(NC(=O)c2ccc(Br)o2)c(C(=O)OCC)c2nc3ccccc3nc21: true (1)

Q: Can you look up the reported call for O=C(Nc1ccc2c(c1)OCO2)c1cn(Cc2ccc(F)cc2)nn1 for me?
Ans: false (0)

Q: Can you look up the reported call for Cc1cccc(NC(=O)N2CCCC2)c1 for me?
Ans: false (0)

Q: Can you look up the reported call for O=C(N/N=C/c1c(O)n(CCc2ccc(F)cc2)c(=O)[nH]c1=O)c1ccncc1 for me?
Ans: true (1)

Q: Can you look up the reported call for O=C1/C(=C\c2cc3c(cc2Br)OCO3)N2CCC1CC2 for me?
Ans: false (0)

Q: Can you look up the reported call for CCCCn1c(NS(=O)(=O)c2ccc(C)cc2)c(C(=O)OCC)c2nc3ccccc3nc21 for me?
Ans: true (1)

====

experimental-system: Mannose-6-phosphate isomerase (Homo sapiens) (UniProt P34949)
assay-summary: MPI inhibition at elevated mannose 6-phosphate – biochemical, fluorescence intensity, high mannose 6-phosphate, primary screen (AID 1220)
experimental-parameters: recombinant PMI enzyme, coupled fluorescence intensity; at 20 µM
Screen size: about 190,000 compounds; about 1,300 (0.68%) were called active. Rule as the data show it: active = inhibition above about 50%; inactive = the rest. The sample holds actives, similar compounds and a random draw of the others, so the mix is not that of the screen.
Just give me one of these, please: active, inactive

Q: Can you look up the reported call for O=c1[nH]c(O)c(N=Nc2ccc3c(c2)OCCO3)c(=O)[nH]1 for me?
Ans: inactive

Q: Can you look up the reported call for O=c1[nH]c(O)c(N=Nc2ccc([N+](=O)[O-])cc2)c(=O)[nH]1 for me?
Ans: inactive

Q: Can you look up the reported call for O=C(c1ccccc1)c1ccc(N=Nc2c(O)[nH]c(=O)[nH]c2=O)cc1 for me?
Ans: inactive

Q: Can you look up the reported call for O=C1/C(=C/c2cc3c(cc2Cl)OCO3)N2CCC1CC2 for me?
Ans: active

====

experimental-system: Mannose-6-phosphate isomerase (Homo sapiens) (UniProt P34949)
assay-summary: MPI inhibition at elevated mannose 6-phosphate – biochemical, fluorescence intensity, high mannose 6-phosphate, primary screen (AID 1220)
experimental-parameters: recombinant PMI enzyme, coupled fluorescence intensity; at 20 µM; hits give high values
The campaign covered roughly 190,000 compounds. About 1,300 (0.68%) were called active. The entries come from a sample that favours actives as a whole.
assay-metric: inhibition (%)
API: value field is a number in %; no unit string.

Some solved entries appear below for comparison.
- CC(C)Oc1cccc(C(=O)C2CCCN(Cc3ccon3)C2)c1 (centres undefined): 4
- Oc1ccc(/C=N/NP(=S)(c2ccccc2)c2ccccc2)c(O)c1O: 52.2
- CC(=NCCN1CCCCC1)c1c(O)n(-c2ccc(Cl)cc2)c(=O)[nH]c1=O: 2.8
- Cc1ccc(-n2c(O)c(/C=N/N3CCOCC3)c(=O)[nH]c2=S)cc1: 29
- Cc1ccccc1-n1c(O)c(/C=N/N2CCOCC2)c(=O)[nH]c1=S: 55.7
- O=c1[nH]c(=S)n(-c2ccccc2)c(O)c1/C=N/N1CCOCC1: 3.4
- CCN(CC)CCN=Cc1c(O)n(CCC2=CCCCC2)c(=O)[nH]c1=O: 1.6
- CCOC(=O)C1=C(C)OC(N)=C(C#N)C12C(=O)Nc1ccc(C)cc12 (centres undefined): -2.3

Q: Given the entry COc1ccc(C(C)=O)cc1CC(C(=O)c1ccc(C)cc1)N(C)C (centres undefined) , report its measured inhibition.
Ans: 4.6

====

experimental-system: Mannose-6-phosphate isomerase (Homo sapiens) (UniProt P34949)
assay-summary: MPI inhibition at elevated mannose 6-phosphate – biochemical, fluorescence intensity, high mannose 6-phosphate, primary screen (AID 1220)
experimental-parameters: recombinant PMI enzyme, coupled fluorescence intensity; at 20 µM
About 1,300 (0.68%) of roughly 190,000 compounds were called active. Cut-off read from the data, not from the text of the source: active = inhibition above about 50%; inactive = the rest. The sample holds actives, similar compounds and a random draw of the others, so the mix is not that of the screen.
Just give me one of these, please: active, inactive

Check out these entries, answers already filled in.
• CN1CCN(c2ccc(N)cc2)CC1 = inactive
• Nc1c(C(=O)NC2CCCC2)c2nc3ccccc3nc2n1CC1CCCO1 (stereo not given) = active
• CC(C)CCNC(=O)c1c(N)n(CC2CCCO2)c2nc3ccccc3nc12 (stereo not given) = inactive
• CCCOC(=O)c1c(N)n(Cc2cccs2)c2nc3ccccc3nc12 = inactive
• CN1CN=C(N[N+](=O)[O-])N(Cc2ccco2)C1 = inactive
• CCOC(=O)c1c(NC(=O)c2c(N)n(CCCOC)c3nc4ccccc4nc23)sc2c1CCCC2 = inactive
• O=C(NC1(C(F)(F)F)Oc2ccccc2O1)N1CCC2(CC1)OCCO2 = inactive
• CC(C)CCOC(=O)c1c(N)n(CC2CCCO2)c2nc3ccccc3nc12 (stereo not given) = inactive

Q: Can you look up the reported call for CC(=O)c1ccc2c(c1)C1C(Cl)C(Sc3ccccc3[N+](=O)[O-])CC1C(c1ccccc1)N2 (stereo not given) for me?
Ans: inactive

Q: Can you look up the reported call for CCCNC(=O)c1c(N)n(CC2CCCO2)c2nc3ccccc3nc12 (stereo not given) for me?
Ans: active

Q: Can you look up the reported call for CCCCn1c(N)c(C(=O)NCCN2CCOCC2)c2nc3ccccc3nc21 for me?
Ans: inactive

Q: Can you look up the reported call for CC(C)OCCCNC(=O)c1c(N)n(CC2CCCO2)c2nc3ccccc3nc12 (stereo not given) for me?
Ans: inactive

Q: Can you look up the reported call for Cc1cc(N2CCCC2)ccc1C=C(C#N)C#N for me?
Ans: inactive

Q: Can you look up the reported call for COc1cc(/C=C2\C(=O)NC(=O)N(c3ccc(C)cc3)C2=O)cc(OC)c1O for me?
Ans: active
